- System: Fibroblast
- TEST DETAILS: Multiplex assay against human fibroblast
- Format: toxicity, cell-based
- CONDITION LABEL: 24 h, 10 µM, compound concentration 10 uM, replicate 1
Population Membrane Permeable-Phenotype (%) values for the compounds below.
Answer format: number, then unit.

1. COc1cc(N2CCN(C)CC2)ccc1Nc1ncc2c(n1)N(C)c1ccccc1C(=O)N2C
5%

-- ask Sample `CNC(=O)c1ccc(Nc2nc(OC3CCCC3)c3c(-c4ccc5nc(C)oc5c4)c[nH]c3n2)c(OC)c1` — what was its Population Membrane Permeable-Phenotype (%)?
-- reply 5%

-- ask Sample `Cc1ccc2nc(NCCN)c3ncc(C)n3c2c1.O=C(O)C(F)(F)F.O=C(O)C(F)(F)F` — what was its Population Membrane Permeable-Phenotype (%)?
-- reply 5%

====

- System: Fibroblast
- TEST DETAILS: Multiplex assay against human fibroblast
- Format: toxicity, cell-based
- CONDITION LABEL: 48 h, 1 µM, compound concentration 1 uM, replicate 1
Grouping rule (Population Tubulin-Different-Phenotype (%)): b0 = under 30%, b1 = from 30% up to 50%, b2 = 50% and over

# count of solved cases: 7
1. O=C(Nc1ccc(-c2ccnc(Nc3ccc(N4CCOCC4)cc3)n2)cc1)[C@@H]1CCCN1
b0
2. CCOc1cc(C(=O)N2CCC(N3CCN(C)CC3)CC2)ccc1Nc1ncc2c(n1)N(C1CCCC1)c1ccccc1C(=O)N2C
b1
3. CCOC(=O)c1c(C)[nH]c2ccc3c(c12)CN1CCc2cc(OC)ccc2C1O3 (centres undefined)
b1
4. O=C(Cc1ccc(-c2ccc(OCCN3CCOCC3)cc2)cn1)NCc1ccccc1 [TIRBANIBULIN]
b0
5. COc1cc(N2CCN(C)CC2)ccc1Nc1ncc2c(n1)N(C)c1ccccc1C(=O)N2C
b0
6. O=C(Nc1ccc(Cl)cc1)Nc1cccc(-c2cccc(N3CCCC3)n2)c1
b0
7. CNc1cc(Oc2cc(C(=O)Nc3cc(N4CCN(C)CC4)cc(C(F)(F)F)c3)ccc2C)ncn1
b2

# next compound below
-- ask Bin this entry: `CCN1CCN(Cc2ccc(Nc3ncc(F)c(-c4cc(F)c5nc(C)n(C(C)C)c5c4)n3)nc2)CC1.CS(=O)(=O)O`
-- reply b2

====

- Tested on: U2OS
- TEST DETAILS: Multiplex assay against U2OS
- Format: toxicity, cell-based
- CONDITION LABEL: human, 12 h, 1 µM, compound concentration 1 uM, replicate 1
Population Pyknosed Nuclei (%) values for the compounds below.
State just the number; it will be interpreted in %.

Below, 2 compounds whose answers are already recorded.
1. COc1cc(N2CCN(C)CC2)ccc1Nc1ncc2c(n1)N(C)c1ccccc1C(=O)N2C
14
2. CCc1cccc(CC)c1NC(=O)c1nn(C)c2c1CCc1cnc(Nc3ccc(N4CCN(C)CC4)cc3OC)nc1-2
53

-- ask Write down the reported Population Pyknosed Nuclei (%) of C=CCn1c(=O)c2cnc(Nc3ccc(N4CCN(C)CC4)cc3)nc2n1-c1cccc(C(C)(C)O)n1 [ADAVOSERTIB] , test system: U2OS.
-- reply 27

====

- Test system: U2OS
- TEST DETAILS: Multiplex assay against U2OS
- Assay type: toxicity, cell-based
- CONDITION LABEL: human, 24 h, 1 µM, compound concentration 1 uM, replicate 1
Doc: threshold 10% (exclusive). Items with Population Tubulin-Different-Phenotype (%) beneath it return Yes; others return No.

1) CCCS(=O)(=O)c1nc(NC2CC2)cc(-c2ccc3c(ccn3C3CC(C)(C)NC(C)(C)C3)c2)n1
Yes
2) O=C(Nc1ccc(Cl)cc1)Nc1cccc(-c2cccc(N3CCCC3)n2)c1
Yes
3) CN1CCC(=C2c3ccccc3CC(=O)c3sccc32)CC1.O=C(O)/C=C/C(=O)O [KETOTIFEN FUMARATE]
No
4) CCOc1cc(C(=O)N2CCC(N3CCN(C)CC3)CC2)ccc1Nc1ncc2c(n1)N(C1CCCC1)c1ccccc1C(=O)N2C
No
5) CN1CCN(C(=O)C(C)(C)c2ccc(C(=O)Nc3cn4cc(-c5cc(C(C)(C)C)cc(C(C)(C)C)c5)ccc4n3)cc2)CC1
No
6) O=C(Cc1ccc(-c2ccc(OCCN3CCOCC3)cc2)cn1)NCc1ccccc1
No

-- ask Check if Population Tubulin-Different-Phenotype (%) falls below 10% for `Cc1ccc2nc(NCCN)c3ncc(C)n3c2c1.O=C(O)C(F)(F)F.O=C(O)C(F)(F)F` .
-- reply No

-- ask Check if Population Tubulin-Different-Phenotype (%) falls below 10% for `O=C1N/C(=N/c2ccccc2F)S/C1=C\c1ccc(C(=O)O)cc1` .
-- reply Yes

-- ask Check if Population Tubulin-Different-Phenotype (%) falls below 10% for `NC(=O)c1cccc(-c2cc(Nc3ccc(OC(F)(F)F)cc3)ncn2)c1` .
-- reply No

-- ask Check if Population Tubulin-Different-Phenotype (%) falls below 10% for `Cl.O=c1c2cccn2c2ccccc2n1CCCN1CCC(c2ccc(Cl)cc2)CC1` .
-- reply No
